The measurements presented in this section are drawn from patent US11632953B2.

Target: Kir7.1 (Homo sapiens (Human))
Sequence (O60928 whole entry): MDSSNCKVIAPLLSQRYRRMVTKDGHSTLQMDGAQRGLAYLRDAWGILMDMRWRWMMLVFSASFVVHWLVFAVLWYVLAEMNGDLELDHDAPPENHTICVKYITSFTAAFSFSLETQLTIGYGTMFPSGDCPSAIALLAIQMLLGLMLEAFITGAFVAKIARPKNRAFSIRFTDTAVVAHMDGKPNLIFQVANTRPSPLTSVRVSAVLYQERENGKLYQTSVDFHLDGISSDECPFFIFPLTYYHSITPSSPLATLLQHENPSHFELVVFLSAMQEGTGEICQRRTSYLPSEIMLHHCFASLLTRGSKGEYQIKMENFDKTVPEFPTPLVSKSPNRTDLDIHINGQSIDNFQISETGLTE
Assay: thallium (Tl+) flux assay
Format: cell-based, mammalian
Conditions: means (n = 3); read-out: IC50 μM (95% Cl)
property.measured: IC50

Task item: Recall and state the measured IC50 for O=C(Cn1nc(C(F)(F)F)c2c1CCCC2)N1CCCc2ccccc21 [VU041] .
Reply: > 30 µM

====

Biological target: AnKir1 (Anopheles gambiae)
Sequence (A0A075M2J8 1-555): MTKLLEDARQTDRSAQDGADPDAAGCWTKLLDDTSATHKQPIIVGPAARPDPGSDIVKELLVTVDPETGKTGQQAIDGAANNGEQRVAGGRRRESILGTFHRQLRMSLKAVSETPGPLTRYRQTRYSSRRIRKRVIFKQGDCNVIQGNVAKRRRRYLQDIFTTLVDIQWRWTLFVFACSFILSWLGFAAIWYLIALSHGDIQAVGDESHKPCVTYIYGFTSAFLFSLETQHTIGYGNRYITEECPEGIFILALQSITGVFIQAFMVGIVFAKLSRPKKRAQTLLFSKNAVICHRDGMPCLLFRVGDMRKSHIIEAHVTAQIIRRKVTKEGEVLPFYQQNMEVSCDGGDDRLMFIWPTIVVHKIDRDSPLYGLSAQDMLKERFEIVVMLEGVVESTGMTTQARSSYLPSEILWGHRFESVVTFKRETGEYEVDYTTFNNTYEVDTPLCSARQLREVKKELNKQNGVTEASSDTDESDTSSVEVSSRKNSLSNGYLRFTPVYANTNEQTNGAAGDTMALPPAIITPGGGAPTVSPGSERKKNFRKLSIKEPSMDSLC
Experiment: whole-cell patch clamp electrophysiology
Type: cell-based
Settings: whole-cell patch clamp
property.measured: IC50 (µM)
Your answer is read as µM, so omit the unit and give the number.

Task item: Name the value of IC50 reported for O=C(Cn1nc(C(F)(F)F)c2c1CCCC2)NC1CCC1 when tested on AnKir1 (Anopheles gambiae).
Reply: 29.7
